Recorded measurements of % inhibition of farnesyltransferase at 1 × 10^-7 M, one per entry
tested target: protein farnesyltransferase (Rattus norvegicus, UniProt Q02293+Q04631)
Construct: The enzyme is purified according to Reiss, Y., et al., Cell, 62: 81-88 (1990), utilizing steps one through three; from tissue; host or cells: rat brain
Sequence (Q02293 whole entry, one chain of several): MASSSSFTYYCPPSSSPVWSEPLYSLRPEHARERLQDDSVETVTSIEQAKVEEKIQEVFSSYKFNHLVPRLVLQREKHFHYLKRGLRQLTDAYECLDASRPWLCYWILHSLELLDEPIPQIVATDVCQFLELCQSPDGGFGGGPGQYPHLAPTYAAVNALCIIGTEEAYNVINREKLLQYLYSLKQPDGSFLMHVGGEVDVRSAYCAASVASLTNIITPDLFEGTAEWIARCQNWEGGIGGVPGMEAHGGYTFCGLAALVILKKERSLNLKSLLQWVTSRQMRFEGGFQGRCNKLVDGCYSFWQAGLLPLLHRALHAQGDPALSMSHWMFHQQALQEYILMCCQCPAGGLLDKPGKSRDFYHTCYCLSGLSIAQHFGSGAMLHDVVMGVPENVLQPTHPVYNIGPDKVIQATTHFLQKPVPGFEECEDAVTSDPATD
test summary: Inhibition of farnesyltransferase (scintillation proximity assay, rat brain enzyme, biotin-K Ras B fragment substrate)
Format: biochemical
condition summary: 1 × 10^-7 M (Table 3)
Kindly provide the numeric value in % only, without the unit symbol.

# annotated cases, reported % inhibition of farnesyltransferase at 1 × 10^-7 M shown
INSERT INTO assay_data (compound, reported_measurement) VALUES
  ('CSCC[C@H](NC(=O)c1ccc(CSc2ccc(C)cc2C)cc1-c1ccccc1C)C(=O)O [Example 741]', 89),
  ('CSCC[C@H](NC(=O)c1ccc(CNCC(=O)N(Cc2ccccc2)Cc2ccccc2)cc1-c1ccccc1C)C(=O)O [Example 914]', 91);

In plain terms, CSCC[C@H](NC(=O)c1ccc(CN(c2ccccc2)S(=O)(=O)c2ccccc2)cc1-c1ccccc1C)C(=O)O [Example 769] has a documented % inhibition of farnesyltransferase at 1 × 10^-7 M of 90

In plain terms, CSCC[C@H](NC(=O)c1ccc(COCc2cnc(C(C)(C)C)s2)cc1-c1ccccc1C)C(=O)[O-].[Li+] [Example 895] has a documented % inhibition of farnesyltransferase at 1 × 10^-7 M of 92

In plain terms, CSCC[C@H](NC(=O)c1ccc(COCc2ccccc2)cc1-c1ccccc1C)C(=O)[O-].[Li+] [Example 571] has a documented % inhibition of farnesyltransferase at 1 × 10^-7 M of 88

In plain terms, CSCC[C@H](NC(=O)c1ccc(COCc2ccc(C)cc2)cc1-c1ccccc1C)C(=O)[O-].[Li+] [Example 579] has a documented % inhibition of farnesyltransferase at 1 × 10^-7 M of 92
